assay_system: CYP2D6 (Homo sapiens, UniProt P10635)
Sequence (P10635 whole entry): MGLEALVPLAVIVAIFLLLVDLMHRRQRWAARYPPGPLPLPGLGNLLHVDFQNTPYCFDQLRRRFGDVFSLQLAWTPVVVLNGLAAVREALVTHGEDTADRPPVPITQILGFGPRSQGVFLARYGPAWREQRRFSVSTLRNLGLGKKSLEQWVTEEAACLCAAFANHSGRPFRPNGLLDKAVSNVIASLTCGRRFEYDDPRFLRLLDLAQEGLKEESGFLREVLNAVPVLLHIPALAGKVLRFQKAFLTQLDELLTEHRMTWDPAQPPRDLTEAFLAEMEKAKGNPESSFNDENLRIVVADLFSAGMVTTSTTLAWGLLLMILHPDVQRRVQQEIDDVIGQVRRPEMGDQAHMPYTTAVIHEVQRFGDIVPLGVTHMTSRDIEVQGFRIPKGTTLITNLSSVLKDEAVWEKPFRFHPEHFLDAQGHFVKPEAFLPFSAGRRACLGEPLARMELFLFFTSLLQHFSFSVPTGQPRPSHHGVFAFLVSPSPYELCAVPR
assay_method_text: Inhibition of CYP2D6 (unknown origin) at 1 uM relative to control
Assay type: ADME
assay_metric: inhibition at 1 µM

Any idea what its inhibition at 1 µM is? The molecule is CCC[C@H](c1nc2ccncc2c(=O)n1CC)N1CCN[C@H](C)C1
< 50%

====

assay_system: CYP1A2 (Homo sapiens)
Sequence (P05177 whole entry): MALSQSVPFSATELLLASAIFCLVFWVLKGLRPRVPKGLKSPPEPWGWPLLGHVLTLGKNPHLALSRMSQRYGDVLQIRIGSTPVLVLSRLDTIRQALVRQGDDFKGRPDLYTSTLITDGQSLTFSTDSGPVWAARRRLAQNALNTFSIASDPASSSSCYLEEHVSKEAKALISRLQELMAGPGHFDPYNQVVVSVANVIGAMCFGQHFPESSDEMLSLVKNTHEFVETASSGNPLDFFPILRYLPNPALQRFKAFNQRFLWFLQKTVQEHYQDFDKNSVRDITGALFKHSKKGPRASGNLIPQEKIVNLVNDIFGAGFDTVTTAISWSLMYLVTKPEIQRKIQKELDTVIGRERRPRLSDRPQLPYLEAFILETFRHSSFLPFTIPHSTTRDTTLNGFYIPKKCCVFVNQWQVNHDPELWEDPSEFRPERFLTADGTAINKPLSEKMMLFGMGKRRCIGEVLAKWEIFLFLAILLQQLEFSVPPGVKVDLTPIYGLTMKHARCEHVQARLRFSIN
assay_method_text: Inhibition of CYP1A2 (unknown origin) at 1 uM relative to control
Type: ADME
assay_metric: inhibition at 1 µM

inhibition at 1 µM of CCC[C@H](c1nc2ccncc2c(=O)n1CC)N1CCN[C@H](C)C1 on CYP1A2 (Homo sapiens)?
< 50%

====

assay_method_text: Metabolic stability in rat liver microsomes assessed as intrinsic clearance per mg protein at 1 uM measured upto 60 mins in presence of NADPH generating system by UPLC-MS/MS analysis
Type: ADME, Microsome
measurement_parameters: read-out: CLH
assay_metric: microsomal CLint at 1 µM (µL/min/mg)
Record the value in µL/min/mg, omitting the unit from your answer.

Which microsomal CLint at 1 µM is listed for CCC[C@H](c1nc2ccncc2c(=O)n1CC)N1CCN[C@H](C)C1 ?
3.9

====

assay_method_text: Cmax in CD1 mouse at 20 mg/kg, ip measured upto 24 hrs by UPLC-MS/MS analysis
Type: ADME, organism-based
Parameters: route intraperitoneal, dose 20 mg/kg, time <=24
measurement_parameters: in vivo
assay_metric: Cmax
Please make sure the unit comes right after the number.

What Cmax value was documented for this compound, CCC[C@H](c1nc2ccncc2c(=O)n1CC)N1CCN[C@H](C)C1 ?
3070 ng/mL

====

assay_system: CYP3A4 (Homo sapiens, UniProt P08684)
Sequence (P08684 whole entry): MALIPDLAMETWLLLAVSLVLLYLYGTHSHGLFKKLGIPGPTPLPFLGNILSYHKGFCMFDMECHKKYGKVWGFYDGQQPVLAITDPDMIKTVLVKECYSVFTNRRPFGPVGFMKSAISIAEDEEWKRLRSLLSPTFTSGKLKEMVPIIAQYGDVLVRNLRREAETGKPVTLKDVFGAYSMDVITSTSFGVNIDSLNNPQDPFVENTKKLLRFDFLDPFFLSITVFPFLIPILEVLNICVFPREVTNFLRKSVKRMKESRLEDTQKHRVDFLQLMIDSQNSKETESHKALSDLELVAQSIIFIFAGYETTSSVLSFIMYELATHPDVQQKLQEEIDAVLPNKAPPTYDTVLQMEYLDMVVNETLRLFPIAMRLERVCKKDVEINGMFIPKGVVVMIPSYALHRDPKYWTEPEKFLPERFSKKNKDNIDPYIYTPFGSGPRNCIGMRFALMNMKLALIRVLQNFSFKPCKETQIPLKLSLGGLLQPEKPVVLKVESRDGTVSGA
assay_method_text: Inhibition of recombinant CYP3A4 (unknown origin) using BFC as substrate at 1 uM measured after 30 mins in presence of NADPH generating system by fluorescence assay relative to control
Type: ADME
measurement_parameters: recombinant CYP3A4, probe BFC
assay_metric: inhibition at 0.5 h, 1 µM (%)
Answer format: numeric, % implied, no suffix.

Param item = CCCC(c1nc2ccc(Br)cc2c(=O)n1CC)N1CCC(NC)CC1 (stereo not given) ; retrieve measured inhibition at 0.5 h, 1 µM.
83

Record request: inhibition at 0.5 h, 1 µM value, item CCCC(c1nc2ccccc2c(=O)n1C)N1C[C@@H](C)N[C@@H](C)C1 (stereo not given in full)
80

Field request: inhibition at 0.5 h, 1 µM | item: CCC[C@@H](c1nc2ccc(Br)cc2c(=O)n1CC)N1CCN[C@H](C)C1
21

Recorded inhibition at 0.5 h, 1 µM for CCCC(c1nc2ccccc2c(=O)n1CC)N1C[C@@H](C)N[C@@H](C)C1 (stereo not given in full) , please?
85

So what does the record say about inhibition at 0.5 h, 1 µM for COCCn1c(C(CC2CC2)N2C[C@@H](C)N[C@@H](C)C2)nc2ccccc2c1=O (stereo not given in full) ?
94

Tell me the measured inhibition at 0.5 h, 1 µM of CCC[C@H](c1nc2ccc(Br)cc2c(=O)n1CC)N1CCN[C@H](C)C1 , please.
51

# inhibition at 0.5 h, 1 µM lookup, item CCCC(c1nc2ccccc2c(=O)n1CCOC)N1C[C@@H](C)N[C@@H](C)C1 (stereo not given in full)
94

Query (molecule): CCCC(c1nc2ccc(NCC)cc2c(=O)n1CC)N1C[C@@H](C)N[C@@H](C)C1 (stereo not given in full) ; field requested: inhibition at 0.5 h, 1 µM
69

For the molecule CCCC(c1nc2cc(-c3ccncc3)ccc2c(=O)n1CC)N1C[C@@H](C)N[C@@H](C)C1 (stereo not given in full) , what inhibition at 0.5 h, 1 µM is on record?
97

I have this molecule here, CCC(c1nc2ccccc2c(=O)n1CCOC)N1C[C@@H](C)N[C@@H](C)C1 (stereo not given in full) , and I need its recorded inhibition at 0.5 h, 1 µM.
86

====

assay_method_text: Efflux ratio of permeability in human Caco2 cells
Format: ADME, cell-based
measurement_parameters: Caco-2
assay_metric: efflux ratio
// no unit string in output, number only

Would you kindly share the measured efflux ratio for CCC[C@H](c1nc2ccncc2c(=O)n1CC)N1CCN[C@H](C)C1 ?
5.4

====

assay_method_text: AUC(0 to t) in CD1 mouse at 20 mg/kg, ip measured upto 24 hrs by UPLC-MS/MS analysis
Type: ADME, organism-based
Set-up: route intraperitoneal, dose 20 mg/kg, time <=24
measurement_parameters: in vivo
assay_metric: AUC(0-t) at 24 h (ng·h/mL)
# unit: ng·h/mL | format: bare number

Give its AUC(0-t) at 24 h value. Item: CCC[C@H](c1nc2ccncc2c(=O)n1CC)N1CCN[C@H](C)C1
8050

====

assay_method_text: Metabolic stability in human liver microsomes assessed as intrinsic clearance per mg protein at 1 uM measured upto 60 mins in presence of NADPH generating system by UPLC-MS/MS analysis
Type: ADME, Microsome
measurement_parameters: read-out: CLH
assay_metric: microsomal CLint at 1 µM (µL/min/mg)
Reply numerically in µL/min/mg, unit not repeated.

What value of microsomal CLint at 1 µM has been reported for the following compound? CCC[C@H](c1nc2ccncc2c(=O)n1CC)N1CCN[C@H](C)C1
2.6

====

assay_system: UniProt P08684
assay_method_text: Inhibition of recombinant CYP3A4 (unknown origin) using BFC as substrate at 1 uM measured after 30 mins in presence of NADPH generating system by fluorescence assay relative to control
Assay type: ADME
measurement_parameters: recombinant CYP3A4, probe BFC
assay_metric: inhibition at 0.5 h, 1 µM (%)
A number alone suffices; assume %.

What does the record list as inhibition at 0.5 h, 1 µM for CCC[C@H](c1nc2ccc(Br)cc2c(=O)n1CC)N1CCN[C@@H](C)C1 ?
73

Which inhibition at 0.5 h, 1 µM is listed for CCC[C@H](c1nc2ccncc2c(=O)n1CC)N1CCN[C@H](C)C1 ?
46

Give the measured inhibition at 0.5 h, 1 µM of COCCn1c(C(C)N2CCNCC2)nc2ccccc2c1=O (centres undefined) .
0

Could you tell me which inhibition at 0.5 h, 1 µM is on file for CCC[C@H](c1nc2ccc(Br)cc2c(=O)n1CC)N1CCN[C@@H](CC)C1 ?
97

====

assay_system: CYP2C9 (Homo sapiens, UniProt P11712)
Sequence (P11712 whole entry): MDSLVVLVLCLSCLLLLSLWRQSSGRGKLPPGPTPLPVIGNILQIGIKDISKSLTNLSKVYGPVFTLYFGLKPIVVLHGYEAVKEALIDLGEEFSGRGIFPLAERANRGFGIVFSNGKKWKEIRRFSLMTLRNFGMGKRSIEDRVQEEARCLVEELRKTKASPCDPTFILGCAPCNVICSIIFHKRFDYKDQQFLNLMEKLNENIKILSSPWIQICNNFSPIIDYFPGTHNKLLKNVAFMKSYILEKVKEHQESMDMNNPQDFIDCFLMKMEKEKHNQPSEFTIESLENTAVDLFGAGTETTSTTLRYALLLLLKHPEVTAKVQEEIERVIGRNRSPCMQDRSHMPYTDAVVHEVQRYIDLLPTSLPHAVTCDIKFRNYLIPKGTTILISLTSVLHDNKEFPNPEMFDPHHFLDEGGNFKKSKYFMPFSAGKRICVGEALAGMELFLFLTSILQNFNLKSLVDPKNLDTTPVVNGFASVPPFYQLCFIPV
assay_method_text: Inhibition of CYP2C9 (unknown origin) at 1 uM relative to control
Format: ADME
assay_metric: inhibition at 1 µM

Give the reported inhibition at 1 µM for CCC[C@H](c1nc2ccncc2c(=O)n1CC)N1CCN[C@H](C)C1 (system: CYP2C9 (Homo sapiens, UniProt P11712)).
< 50%

====

assay_method_text: Lipophilicity, logP of compound
Type: physicochemical
measurement_parameters: octanol/water
assay_metric: logP
Answer field: number only, no words.

Field request: logP | item: CCC[C@H](c1nc2ccncc2c(=O)n1CC)N1CCN[C@H](C)C1
2.22

====

assay_system: CYP3A4 (Homo sapiens, UniProt P08684)
assay_method_text: Inhibition of recombinant CYP3A4 (unknown origin) using BFC as substrate at 1 uM measured after 30 mins in presence of NADPH generating system by fluorescence assay relative to control
Assay type: ADME
measurement_parameters: recombinant CYP3A4, probe BFC
assay_metric: inhibition at 0.5 h, 1 µM

Record request: inhibition at 0.5 h, 1 µM value, item CCC[C@@H](c1nc2ccc(Br)cc2c(=O)n1CC)N1C[C@@H](C)N[C@@H](C)C1
88%

Recorded inhibition at 0.5 h, 1 µM of CC(C)C[C@H](CN)CC(=O)O , please.
43%

Value lookup for inhibition at 0.5 h, 1 µM; key = CCC(c1nc2ccccc2c(=O)n1CCOC)N1CCNCC1 (stereo not given)
37%

Value lookup for inhibition at 0.5 h, 1 µM; key = CCCC(c1nc2ccc(-c3ccncc3)cc2c(=O)n1CC)N1C[C@@H](C)N[C@@H](C)C1 (stereo not given in full)
92%

I'd like to know its inhibition at 0.5 h, 1 µM. The compound in question is CCCC(c1nc2ccccc2c(=O)n1Cc1ccccc1)N1C[C@@H](C)N[C@@H](C)C1 (stereo not given in full)
98%

Need inhibition at 0.5 h, 1 µM of CCC[C@@H](c1nc2ccncc2c(=O)n1CC)N1CCN[C@H](C)C1 , thanks.
15%

What does the data say about its inhibition at 0.5 h, 1 µM? Entry: CCC[C@@H](c1nc2ccc(Br)cc2c(=O)n1CC)N1CCN[C@@H](C)C1
33%

Item CCC[C@@H](c1nc2ccncc2c(=O)n1CC)N1CCN[C@@H](C)C1 has what recorded inhibition at 0.5 h, 1 µM?
44%

Which inhibition at 0.5 h, 1 µM value belongs to CCC[C@H](c1nc2ccc(Br)cc2c(=O)n1CC)N1CCNC(C)(C)C1 ?
72%

Using the record for CCCCC(c1nc2ccccc2c(=O)n1CCOC)N1C[C@@H](C)N[C@@H](C)C1 (stereo not given in full) , report its inhibition at 0.5 h, 1 µM.
97%
